# study.system: alpha-1-receptor (Rattus norvegicus)
# Construct: rat liver homogenates; from tissue; host or cells: rat liver homogenate
# Sequence (P15823 1-515): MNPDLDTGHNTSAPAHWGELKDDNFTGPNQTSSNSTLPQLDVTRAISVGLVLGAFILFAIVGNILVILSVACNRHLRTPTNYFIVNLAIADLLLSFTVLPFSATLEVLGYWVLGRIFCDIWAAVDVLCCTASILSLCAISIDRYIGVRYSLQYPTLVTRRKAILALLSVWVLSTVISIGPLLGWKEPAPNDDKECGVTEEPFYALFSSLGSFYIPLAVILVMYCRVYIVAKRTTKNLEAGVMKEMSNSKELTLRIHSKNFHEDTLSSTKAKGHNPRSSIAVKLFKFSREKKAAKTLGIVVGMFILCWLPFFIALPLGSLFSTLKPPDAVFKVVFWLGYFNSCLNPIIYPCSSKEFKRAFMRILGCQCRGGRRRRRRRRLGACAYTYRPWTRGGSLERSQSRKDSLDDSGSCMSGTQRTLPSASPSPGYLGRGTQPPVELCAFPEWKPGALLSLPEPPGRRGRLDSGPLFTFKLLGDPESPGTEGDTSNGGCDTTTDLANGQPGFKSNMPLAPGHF
# test.name: Radioligand binding, alpha-1 adrenoceptor, rat liver homogenates, [3H]-prazosin
# particulars: rat liver homogenates, [3H]-prazosin; read-out: Ki alpha-1
# Experimental: The compounds were assessed for alpha-adrenergic receptor subtype selectivity by use of radioligand binding techniques as described previously (DeBernardis et.al. J. Med. Chem. 28, 1398 (1985)).
Counter-ions that a name gives are not always drawn.
experimental.endpoint: pKi
The meaning of pKi here: minus log10 of the concentration in molar units.

For the compound COc1ccc2c(c1)CCC2CN1CCC(c2cccc(F)c2)C1 (stereo not shown) [Example 153, hydrochloride] , what pKi is on record?
7.24

For the compound COc1ccc2c(c1OC)CCCC2CN(C)CCc1cccs1 (stereo not shown) [Example 86, hydrochloride] , what pKi is on record?
6.31

For the compound COc1cc2c(c(OC)c1)C(CN(C)CCc1cccs1)CCC2 (stereo not shown) [Example 26, hydrochloride] , what pKi is on record?
6.76

For the compound COc1cc2c(cc1C)C(CN(C)CCc1ccco1)CCC2 (stereo not shown) [Example 128, hydrochloride] , what pKi is on record?
6.07

For the compound CCN(CCc1cccc(F)c1)CC1CCCc2cc(OC)ccc21 (stereo not shown) [Example 42, hydrochloride] , what pKi is on record?
5.98

For the compound CN(CCc1cccs1)CC1CCCc2c1ccc1c2OCCO1 (stereo not shown) [Example 30, hydrochloride] , what pKi is on record?
6.33

For the compound CN(CCc1cccc(F)c1)CC1CCCc2c1ccc1c2OCO1 (stereo not shown) , what pKi is on record?
6.22

For the compound CN(CCc1cccc(N)c1)CC1CCCc2cc(O)ccc21 (stereo not shown) [Example 68, dihydrobromide] , what pKi is on record?
5.93

For the compound CN(CCc1cccc(O)c1)CC1CCCc2cc(O)ccc21 (stereo not shown) [Example 82, hydrochloride] , what pKi is on record?
6.31

For the compound COc1ccc(C)c2c1CCCC2CN(C)CCc1cccs1 (stereo not shown) [Example 36, hydrochloride] , what pKi is on record?
6.18

For the compound COc1cccc2c1CCCC2CN1CCC(c2cccs2)C1 (stereo not shown) [Example 146, hydrochloride] , what pKi is on record?
6.77

For the compound CCN(CCc1cccs1)CC1CCCc2cc(OC)ccc21 (stereo not shown) [Example 41, hydrochloride] , what pKi is on record?
6.02

For the compound COc1ccc2c(c1)CCCC2CN(C)CCc1cccc(O)c1 (stereo not shown) [Example 83, hydrochloride] , what pKi is on record?
6.02

For the compound Nc1ccc2c(c1)CCCC2CN1CCC(c2ccccc2)C1 (stereo not shown) [Example 156, dihydrochloride] , what pKi is on record?
6.90

For the compound CCOc1ccc2c(c1)CCCC2CN(C)CCc1cccc(N)c1 (stereo not shown) [Example 69, dihydrochloride] , what pKi is on record?
5.89

For the compound COc1ccc2c(c1)CCCC2CN(C)CCc1cccc(F)c1 (stereo not shown) [Example 6b, hydrochloride] , what pKi is on record?
5.93

For the compound CN(CCc1cccs1)CC1CCCc2c1ccc1c2OCO1 (stereo not shown) [Example 23, hydrochloride] , what pKi is on record?
6.35

For the compound CN(CCc1cccs1)CC1CCCc2c1ccc(O)c2I (stereo not shown) [Example 115, hydrochloride] , what pKi is on record?
6.28

For the compound CN(CCc1ccccc1)CC1CCCc2cc(N)ccc21 (stereo not shown) [Example 114, dihydrochloride] , what pKi is on record?
6.14

Values were extracted from patent US5086074A.
